Where do these numbers come from? They come from patent EP3294317B1.

Would you kindly list Fold increase in bacterial susceptibility to colistin for each of these compounds?
- Tested on: Escherichia coli ATCC 9637
- assay overview: Colistin broth microdilution MIC with potentiator compounds (Example 1)
- Type: cell-based
- assay context: E. coli ATCC 9637; MIC in the presence of 1.0% DMSO / MIC in the presence of 0.1 mM potentiator compound and 1.0% DMSO; positive = increased, negative = decreased susceptibility, 1 = no effect

List reported Fold increase in bacterial susceptibility to colistin for each of these compounds:
1. CCOC(=O)c1cc2cc(C(=O)N3CCN(Cc4cccc(C(F)(F)F)c4)CC3)ccc2[nH]1 [IIB]
2. O=C(CCCN1C(=O)c2cccc3cccc(c23)C1=O)N1CCN(c2ccccc2O)CC1 [IIA]

Result:
1: +2 fold; 2: +2 fold

Query: Suppose we examine the compound CN(C)CCNC(=O)c1cccc(CNC(=O)Nc2ccc3c(c2)Cc2ccccc2-3)c1 [I] ; what Fold increase in bacterial susceptibility to colistin value has been reported?
Result: +2 fold
